Source: a melting point compilation (Tetko et al.)

Consider the following molecules and their measured melting point readings.

{"molecule": "N#Cc1cc(Cl)ccc1CO", "reportedMeasurement": "99 to 101 °C"}

API: the following record is the query input.
Query block: # input molecule: CCCCc1ccc(NS(=O)(=O)c2ccc(N)cc2)cc1 ; wanted: its melting point
Result block: 159 to 161 °C

---

measurementLabel: melting point

Solved cases below.
{"compound": "O=C1CCCc2cc[nH]c21", "reportedMeasurement": "94 to 96 °C"}
{"compound": "CNc1ccc(Oc2ccccn2)cc1", "reportedMeasurement": "126 to 128 °C"}
{"compound": "Cn1ccc(C(=O)O)cc1=O", "reportedMeasurement": "219 to 221 °C"}
{"compound": "Nc1cc(-c2ccc(Br)s2)n[nH]1", "reportedMeasurement": "141 to 143 °C"}

Query block: # input compound: NC1CCCCC1Nc1cnccn1 (stereo not drawn) ; wanted: its melting point
Result block: 59 to 61 °C
